Test system: HCC 2998
Assay: NCI tumour cell line growth inhibition, 48 h
Active and inactive are the calls of the source. Cut-off read from the data, not from the text of the source: active = GI50 up to about 1.1 µM and inactive = higher.
readout_label: GI50

input: Fill in the blank: the reported GI50 of O=C(NCCCl)Nc1ccccc1 is ____.
output: > 100 µM (inactive)

input: // next record CC(=O)CC(=O)c1cc2c(=O)oc(C)cc2oc1=O
output: > 37.5 µM (inactive)

input: // next record Cc1cc(=O)n(-c2ccccc2C)c(C)n1
output: > 100 µM (inactive)

input: // next record N#CC1(C#N)C(C#N)(C#N)C1(C#N)C(N)=O
output: > 100 µM (inactive)

input: // next record CC1CN=C(N(C(=O)Nc2ccccc2)C2CCCCC2)S1 (stereo unspecified)
output: 18.3 µM (inactive)

input: // next record Cn1cnc([N+](=O)[O-])c1Sc1nc2cc(Cl)c(F)cc2[nH]1
output: 7.6 µM (inactive)

input: // next record COc1cc2c([C@@H](OC(=O)c3ccccc3)c3ccc4c(c3)OCO4)nccc2c(OC)c1OC
output: 92 µM (inactive)

input: // next record C=C1[C@@H]2CCC(C)(C)[C@H]1CCC(=O)[C@@H]2C(=O)OC
output: > 100 µM (inactive)

input: // next record COc1cc(C=C2C(=O)OC(C)(C)OC2=O)cc(OC)c1OC
output: > 100 µM (inactive)

input: // next record O=c1[nH]nc(-c2ccccc2)n1/N=C/c1ccncc1
output: > 100 µM (inactive)

input: // next record CSc1nc(Cl)c2c(n1)Sc1nc3ccccc3n1N=C2
output: 26.5 µM (inactive)

---

Test system: LOX IMVI
Experiment: NCI tumour cell line growth inhibition, 48 h
Active and inactive are the calls of the source. Rule as the data show it: active = GI50 up to about 1.1 µM and inactive = higher.
Reply using exactly one outcome from active, inactive

input: Hi team, can someone confirm the assay call for CC12CCC([C@H](N3CCOCC3)/C1=N\OCCN1CCCC1)C2(C)C (some centres undefined) ?
output: inactive

input: // next record CC1C(c2ccccc2)N(C)C(c2ccccc2)C(C)C1(O)c1ccccc1 (centres undefined)
output: inactive

input: // next record OCCNc1ncnc2c1ncn2C1OC(CO)C(O)C1O (centres undefined)
output: inactive

input: // next record Cc1nc2c(sc3nc4ccccc4n32)c(=O)[nH]1
output: inactive

input: // next record O=C1C[C@H](Sc2ccccc2)C2(OCCO2)[C@@H](Sc2ccccc2)C1
output: active

input: // next record COc1cc2c(c(OC)c1OC)-c1ccc(SC)c(=O)cc1[C@@H](NCc1ccc([N+](=O)[O-])cc1)CC2
output: active

input: // next record O=C(Nc1c(C(=O)NC2CCCCC2)[nH]c(=O)[nH]c1=O)c1ccc(Cl)cc1
output: inactive

input: // next record CN1CCN(Cn2nc(-c3ccccc3)n(/N=C/c3ccc(-c4ccc(Cl)cc4Cl)o3)c2=S)CC1
output: inactive

input: // next record C[C@]12CC(C#N)C(=O)C(O)=C1CC[C@@H]1C2CC[C@@]2(C)C1CC[C@@H]2O (some centres undefined)
output: inactive

input: // next record O=C1c2cccc3cc4ccccc4c(c23)C(=O)N1CCCNCCNCCCN1C(=O)c2cccc3cc4ccccc4c(c23)C1=O
output: active

input: // next record C=C(C)[C@H]1C=C[C@@H](OC(C)=O)[C@@]2(COC(C)=O)[C@H](OC(=O)CCC)[C@H]3[C@@H](OC(C)=O)[C@@H](C)C[C@]3(O)C(=O)[C@@](C)(OC(C)=O)[C@H]12
output: inactive

input: // next record C=CC(C)C1(CCCOCc2ccccc2)C(=S)N2CCC3(CC24CCCC14)OCCO3 (centres undefined)
output: inactive

input: // next record CCN(CC)c1ccc(C2NC(=O)c3ccccc3N2)cc1 (centres undefined)
output: inactive

input: // next record O=C(c1cccs1)N(C(=S)N1CCN(c2ccccn2)CC1)c1ccccc1
output: inactive

input: // next record O=C(NCCCl)Nc1ccccc1
output: inactive

input: // next record C[C@H](CCC(=O)O)[C@H]1CC[C@H]2[C@@H]3[C@@H](O)C[C@@H]4C[C@H](O)CC[C@]4(C)[C@H]3CC[C@]12C
output: inactive

input: // next record O=C1C2CCCCC2C(=O)N1n1c(Cc2ccc(Cl)cc2)n[nH]c1=O (centres undefined)
output: inactive

input: // next record CC1=C2C(=O)O[C@@H](c3ccoc3)[C@]2(C)CCC1=O
output: inactive

input: // next record OCC(O)COCn1cc(Cn2ncc3c(NCc4ccccc4)ncnc32)nn1 (centres undefined)
output: inactive

Origin of the recorded values: ChEMBL document CHEMBL1201862
